Taken from patent US7658917.

# TARGET: natural β-amyloid peptide β-AP1-40 (human)
# Sequence (peptide, as listed by the source): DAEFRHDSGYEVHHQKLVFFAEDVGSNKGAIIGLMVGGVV
# EXPERIMENTAL PROTOCOL: cell-based or functional assay
Numbered stars: 1 amine (or outer) side, 2 acyl side, 3 side chain; on linkers, the order of the positions; unused ones are H or OH. Square brackets hold non-standard residues; d marks the D form. * marks the point of attachment. Cholyl = C[C@H](CCC(=O)*)[C@H]1CC[C@H]2[C@@H]3[C@H](O)C[C@@H]4C[C@H](O)CC[C@]4(C)[C@H]3C[C@H](O)[C@]12C; Lithocholoyl = C[C@H](CCC(=O)*)[C@H]1CC[C@H]2[C@@H]3CC[C@@H]4C[C@H](O)CC[C@]4(C)[C@H]3CC[C@]12C; Adp = aminoethyldibenzofuranylpropanoic acid, O=C(CCc1cccc2c1oc1c(CCN[*:1])cccc12)[*:2]; NMeL = CN[C@@H](CC(C)C)C(=O)O
Measured % Inucl'n; nucleation assay; 100 mole % by item
Supply the numeric figure in %, leaving out any unit text.

BINDER: Lithocholoyl-LVFFA-OH [LithoCA-LVFFA-oh]
ENDPOINT RESULT: -229
--
BINDER: H-LVFFA-OH [h-LVFFA-oh]
ENDPOINT RESULT: 15
--
BINDER: Cholyl-KLVAF-OH (SMILES CC(C)C[C@H](NC(=O)[C@H](CCCCN)NC(=O)CC[C@@H](C)[C@H]1CC[C@H]2[C@@H]3[C@H](O)C[C@@H]4C[C@H](O)CC[C@]4(C)[C@H]3C[C@H](O)[C@]12C)C(=O)N[C@H](C(=O)N[C@@H](C)C(=O)N[C@@H](Cc1ccccc1)C(=O)O)C(C)C) [cholyl-Aβ16-20 (Phe19->Ala)]
ENDPOINT RESULT: 73
--
BINDER: Cholyl-LVFFA-NH2 [CA-LVFFA-nh2]
ENDPOINT RESULT: -200
--
BINDER: H-KLVFF-OH [unmodified Aβ16-20]
ENDPOINT RESULT: 0

For record Cholyl-Val-Phe-Phe-OH (SMILES CC(C)[C@H](NC(=O)CC[C@@H](C)[C@H]1CC[C@H]2[C@@H]3[C@H](O)C[C@@H]4C[C@H](O)CC[C@]4(C)[C@H]3C[C@H](O)[C@]12C)C(=O)N[C@@H](Cc1ccccc1)C(=O)N[C@@H](Cc1ccccc1)C(=O)O) [CA-VFF-oh] the listed % Inucl'n; nucleation assay; 100 mole % is 55

In plain terms, H-DDII[NMeL]VEH[Adp]LKLVFF-OH (SMILES CC[C@H](C)[C@H](NC(=O)[C@H](CC(=O)O)NC(=O)[C@@H](N)CC(=O)O)C(=O)N[C@H](C(=O)N(C)[C@@H](CC(C)C)C(=O)N[C@H](C(=O)N[C@@H](CCC(=O)O)C(=O)N[C@@H](Cc1c[nH]cn1)C(=O)NCCc1cccc2c1oc1c(CCC(=O)N[C@@H](CC(C)C)C(=O)N[C@@H](CCCCN)C(=O)N[C@@H](CC(C)C)C(=O)N[C@H](C(=O)N[C@@H](Cc3ccccc3)C(=O)N[C@@H](Cc3ccccc3)C(=O)O)C(C)C)cccc12)C(C)C)[C@@H](C)CC) [h-DDII(N-Me-Leu)VEH(Adp)-LKLVFF-oh] has a documented % Inucl'n; nucleation assay; 100 mole % of -29

binder Cholyl-KLVFF-NH2 [cholyl-Aβ16-20-amide] , % Inucl'n; nucleation assay; 100 mole % observed: 70
